Target: Sodium-dependent noradrenaline transporter (Homo sapiens, UniProt P23975)
Sequence (P23975 whole entry): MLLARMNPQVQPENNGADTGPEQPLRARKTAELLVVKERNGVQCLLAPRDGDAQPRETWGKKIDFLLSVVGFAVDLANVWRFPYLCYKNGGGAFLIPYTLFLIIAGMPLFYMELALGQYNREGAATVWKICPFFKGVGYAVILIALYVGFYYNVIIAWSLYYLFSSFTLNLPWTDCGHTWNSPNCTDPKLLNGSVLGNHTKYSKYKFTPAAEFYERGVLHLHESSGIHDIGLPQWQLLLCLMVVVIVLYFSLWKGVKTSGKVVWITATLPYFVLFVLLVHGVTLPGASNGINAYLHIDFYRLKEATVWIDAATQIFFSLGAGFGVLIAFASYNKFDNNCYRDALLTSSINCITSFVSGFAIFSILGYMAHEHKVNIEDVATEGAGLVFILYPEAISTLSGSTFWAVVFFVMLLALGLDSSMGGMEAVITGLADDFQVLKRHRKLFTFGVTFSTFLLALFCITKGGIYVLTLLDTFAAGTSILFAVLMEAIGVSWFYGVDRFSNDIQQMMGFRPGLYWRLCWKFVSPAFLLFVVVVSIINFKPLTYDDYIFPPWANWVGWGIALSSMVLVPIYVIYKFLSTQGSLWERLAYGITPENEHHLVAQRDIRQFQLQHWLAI
recorded metric: Ki

Problem: Consider the molecule O=C(NC1CCCCC1)N1OCC2CSc3ccc(F)cc3C21 (stereo unspecified) tested on Sodium-dependent noradrenaline transporter (Homo sapiens, UniProt P23975); state its Ki.
Result: > 10 µM

----------
Target: Sodium-dependent dopamine transporter (Homo sapiens, UniProt Q01959)
Sequence (Q01959 whole entry): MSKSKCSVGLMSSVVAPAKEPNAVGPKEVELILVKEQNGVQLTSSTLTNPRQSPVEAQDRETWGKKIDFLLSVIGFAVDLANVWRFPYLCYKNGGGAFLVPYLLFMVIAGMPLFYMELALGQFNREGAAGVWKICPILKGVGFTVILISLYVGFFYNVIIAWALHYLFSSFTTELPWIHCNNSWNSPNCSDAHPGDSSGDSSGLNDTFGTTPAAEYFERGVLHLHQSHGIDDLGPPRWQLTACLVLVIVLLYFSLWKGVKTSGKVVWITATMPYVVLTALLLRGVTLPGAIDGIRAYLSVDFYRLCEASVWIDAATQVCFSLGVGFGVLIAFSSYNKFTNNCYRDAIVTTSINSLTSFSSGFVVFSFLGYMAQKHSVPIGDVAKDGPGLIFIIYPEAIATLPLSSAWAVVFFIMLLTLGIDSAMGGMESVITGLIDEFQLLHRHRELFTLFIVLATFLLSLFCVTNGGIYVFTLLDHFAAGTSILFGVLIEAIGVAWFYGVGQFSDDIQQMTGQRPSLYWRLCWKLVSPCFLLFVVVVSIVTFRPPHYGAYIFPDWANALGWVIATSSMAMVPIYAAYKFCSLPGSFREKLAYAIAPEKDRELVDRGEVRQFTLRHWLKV
recorded metric: Ki

Problem: # return recorded Ki for entry O=C(NC1CCCCC1)N1OCC2CSc3ccc(F)cc3C21 (stereo unspecified)
Result: > 10 µM

----------
Biological target: 5-hydroxytryptamine receptor 2C (Homo sapiens)
Sequence (P28335 whole entry): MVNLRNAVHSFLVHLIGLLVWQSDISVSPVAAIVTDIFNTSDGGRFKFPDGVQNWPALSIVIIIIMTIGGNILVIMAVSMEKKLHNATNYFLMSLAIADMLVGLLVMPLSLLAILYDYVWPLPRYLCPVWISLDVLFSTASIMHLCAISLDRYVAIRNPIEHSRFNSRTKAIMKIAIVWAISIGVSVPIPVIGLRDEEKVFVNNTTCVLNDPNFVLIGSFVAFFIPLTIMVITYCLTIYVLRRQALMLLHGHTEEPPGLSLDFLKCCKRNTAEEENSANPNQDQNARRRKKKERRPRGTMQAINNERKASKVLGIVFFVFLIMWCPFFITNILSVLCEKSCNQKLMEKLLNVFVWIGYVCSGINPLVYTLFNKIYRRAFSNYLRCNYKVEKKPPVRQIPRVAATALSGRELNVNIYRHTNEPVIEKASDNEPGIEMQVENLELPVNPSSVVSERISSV
Test: Agonist activity at human 5HT2C receptor assessed as 5HT-induced calcium mobilization by FLIPR assay
Format: functional
recorded metric: EC50 (nM)
Answer in nM, number only, no unit symbol.

Problem: Consider the compound O=C(NC1CCCCC1)N1OCC2CSc3ccc(F)cc3C21 (stereo unspecified) tested on 5-hydroxytryptamine receptor 2C (Homo sapiens); state its EC50.
Result: 0.724
